Target: GSPT1 (Homo sapiens, UniProt P15170+Q96SW2)
Sequence (P15170 whole entry, the tested form may be a part): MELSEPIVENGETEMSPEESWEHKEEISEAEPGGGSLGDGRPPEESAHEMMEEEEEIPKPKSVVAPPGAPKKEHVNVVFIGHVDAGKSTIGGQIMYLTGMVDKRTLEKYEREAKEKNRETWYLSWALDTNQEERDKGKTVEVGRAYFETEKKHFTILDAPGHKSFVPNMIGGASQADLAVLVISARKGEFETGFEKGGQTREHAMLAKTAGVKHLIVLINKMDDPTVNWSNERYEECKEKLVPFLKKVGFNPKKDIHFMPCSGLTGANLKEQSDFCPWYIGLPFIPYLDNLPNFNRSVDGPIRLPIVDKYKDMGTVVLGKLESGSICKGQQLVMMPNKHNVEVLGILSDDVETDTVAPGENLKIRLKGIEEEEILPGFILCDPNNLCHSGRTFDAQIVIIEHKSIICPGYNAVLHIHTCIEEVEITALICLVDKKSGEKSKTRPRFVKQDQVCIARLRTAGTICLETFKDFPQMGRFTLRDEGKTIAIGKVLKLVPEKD
Sequence (Q96SW2 whole entry, the tested form may be a part): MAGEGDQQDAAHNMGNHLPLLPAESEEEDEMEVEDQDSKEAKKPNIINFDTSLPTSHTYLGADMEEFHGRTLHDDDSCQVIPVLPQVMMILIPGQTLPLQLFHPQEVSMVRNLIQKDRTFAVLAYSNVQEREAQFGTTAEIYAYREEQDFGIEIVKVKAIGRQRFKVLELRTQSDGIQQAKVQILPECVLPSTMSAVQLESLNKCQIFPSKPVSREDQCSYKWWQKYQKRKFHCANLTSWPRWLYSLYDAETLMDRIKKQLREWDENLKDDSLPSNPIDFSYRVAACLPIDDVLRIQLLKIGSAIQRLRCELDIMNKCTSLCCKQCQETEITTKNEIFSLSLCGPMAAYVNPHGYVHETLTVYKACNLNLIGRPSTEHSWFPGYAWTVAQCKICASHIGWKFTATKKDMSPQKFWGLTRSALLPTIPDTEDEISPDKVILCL
Sequence (Q16531 whole entry partner, the tested form may be a part): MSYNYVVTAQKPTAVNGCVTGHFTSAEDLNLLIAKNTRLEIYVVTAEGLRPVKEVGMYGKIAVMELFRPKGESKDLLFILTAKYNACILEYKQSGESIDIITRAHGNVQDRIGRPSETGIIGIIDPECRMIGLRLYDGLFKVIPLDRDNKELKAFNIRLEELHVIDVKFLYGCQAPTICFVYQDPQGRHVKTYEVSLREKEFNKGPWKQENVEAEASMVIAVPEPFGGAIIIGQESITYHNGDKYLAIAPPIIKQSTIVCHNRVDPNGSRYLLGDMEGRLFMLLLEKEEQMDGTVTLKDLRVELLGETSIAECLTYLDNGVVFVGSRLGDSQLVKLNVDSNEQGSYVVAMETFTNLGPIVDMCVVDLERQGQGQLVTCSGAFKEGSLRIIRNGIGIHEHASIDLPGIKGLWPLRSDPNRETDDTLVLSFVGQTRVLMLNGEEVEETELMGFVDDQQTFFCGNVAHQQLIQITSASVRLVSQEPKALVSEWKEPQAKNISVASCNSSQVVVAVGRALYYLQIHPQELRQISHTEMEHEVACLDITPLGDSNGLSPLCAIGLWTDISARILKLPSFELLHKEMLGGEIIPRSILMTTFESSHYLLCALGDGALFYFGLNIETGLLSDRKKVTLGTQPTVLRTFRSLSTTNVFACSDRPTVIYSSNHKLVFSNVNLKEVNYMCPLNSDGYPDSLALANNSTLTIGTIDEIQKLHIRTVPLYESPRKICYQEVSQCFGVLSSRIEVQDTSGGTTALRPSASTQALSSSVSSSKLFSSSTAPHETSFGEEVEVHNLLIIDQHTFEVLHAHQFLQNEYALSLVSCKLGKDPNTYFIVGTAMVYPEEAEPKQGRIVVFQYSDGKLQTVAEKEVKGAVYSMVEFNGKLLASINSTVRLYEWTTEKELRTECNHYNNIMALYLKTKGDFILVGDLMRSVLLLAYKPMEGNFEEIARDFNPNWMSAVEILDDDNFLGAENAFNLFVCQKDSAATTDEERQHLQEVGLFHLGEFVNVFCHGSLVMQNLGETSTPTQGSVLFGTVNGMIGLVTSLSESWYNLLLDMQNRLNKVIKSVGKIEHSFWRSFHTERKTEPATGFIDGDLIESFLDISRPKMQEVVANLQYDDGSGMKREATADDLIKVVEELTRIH
Assay: Cellular degradation assay, eGFP-GSPT1 fusion with mCherry reporter in Flp-In 293 cells
Assay type: cell-based
Parameters: expressed in transfected cells; host or cells: Flp-In 293
Conditions: compound concentration 2.00E−06; 5 h incubation; n=1
Method: IKZF1Δ, IKZF2Δ, GSPT1 and SALL4 ZnF1-2 were subcloned into mammalian pcDNA5/FRT Vector (Ampicillin and Hygromycin B resistant) modified to contain MCS-eGFP-P2A-mCherry. […] Following 2-3 passage cycle, FACS (FACSAria™ II, BD) was used to enrich for cells expressing eGFP and mCherry. […] The resulting images were analyzed using CellProfiler™. […] The fraction of GFP-positive cells/mCherry-positive cells in each well was then calculated, and the green and red images were rescaled for visualization. […]
Catalogue of GSPT1 GFP/RFP Relative Abundance readings, one per entry.
Readout Label: GSPT1 GFP/RFP Relative Abundance

• Cc1ccc(NC(=O)c2cccc(NC3=CC(=O)N(C4CCC(=O)NC4=O)C3=O)c2)cc1Cl (centres unmarked) [Compound 49] = 0.055
• CCOC(=O)CN(C)C1=CC(=O)N(C2CCC(=O)NC2=O)C1=O (centres unmarked) [Compound 17] = 1.001
• CCOC(=O)CNC1=CC(=O)N(C2CCC(=O)NC2=O)C1=O (centres unmarked) [Compound 16] = 0.876
• O=C(O)CCCCNC1=CC(=O)N(C2CCC(=O)NC2=O)C1=O (centres unmarked) [Compound 22] = 0.883
• CN(C)C(=O)c1cccc(NC2=CC(=O)N(C3CCC(=O)NC3=O)C2=O)c1 (centres unmarked) [Compound 33] = 0.952
• Cc1ccc(NC(=O)Nc2cccc(NC3=CC(=O)N(C4CCC(=O)NC4=O)C3=O)c2)cc1Cl (centres unmarked) [Compound 43] = 0.072
• Cc1ccc(NC(=O)NCc2ccccc2NC2=CC(=O)N(C3CCC(=O)NC3=O)C2=O)cc1Cl (centres unmarked) [Compound 45] = 0.921
• COC(=O)CCNC1=CC(=O)N(C2CCC(=O)NC2=O)C1=O (centres unmarked) [Compound 14] = 1.018
• O=C1CCC(N2C(=O)C=C(Nc3nc[nH]n3)C2=O)C(=O)N1 (centres unmarked) [Compound 18] = 0.650
• Cc1ccc(NC(=O)NCCCNC2=CC(=O)N(C3CCC(=O)NC3=O)C2=O)cc1Cl (centres unmarked) [Compound 47] = 0.041
• Cc1ccc(CC(=O)NCc2cccc(NC3=CC(=O)N(C4CCC(=O)NC4=O)C3=O)c2)cc1C (centres unmarked) [Compound 60] = 0.558
